Every entry's value here was drawn from ChEMBL document CHEMBL3352593.

test system: Kidney; assay: Drug level in kidney of naive NSG mouse at 20 nmol, ip after 24 hrs by liquid scintillation counting method; assay type: ADME, organism-based; conditions: in vivo

{"compound_structure_string": "CC(=O)N[C@H](CCNC(=O)c1cc(NC(=O)c2cc(NC(=O)c3cc(NC(=O)c4nccn4C)cn3C)cn2C)cn1C)C(=O)Nc1cnc(C(=O)Nc2cc(C(=O)Nc3cc(C(=O)Nc4cc(C(=O)NCCCN(C)CCCN[14C](=O)c5cccc([14C](=O)O)c5)n(C)c4)n(C)c3)n(C)c2)n1C", "Drug uptake (mg/kg)": 0.23}

----------
test system: Liver; assay: Drug level in liver of human LNCAP cells xenografted NSG mouse at 20 nmol, ip after 24 hrs by liquid scintillation counting method; format: ADME, organism-based; settings: in vivo

{"compound_structure_string": "CC(=O)N[C@H](CCNC(=O)c1cc(NC(=O)c2cc(NC(=O)c3cc(NC(=O)c4nccn4C)cn3C)cn2C)cn1C)C(=O)Nc1cnc(C(=O)Nc2cc(C(=O)Nc3cc(C(=O)Nc4cc(C(=O)NCCCN(C)CCCN[14C](=O)c5cccc([14C](=O)O)c5)n(C)c4)n(C)c3)n(C)c2)n1C", "Drug uptake": "1.04 mg/kg"}
